Molecular target: Serine/threonine-protein phosphatase PP1-alpha catalytic subunit (Homo sapiens)
Assay: inhibition of human PP1 catalytic subunit – biochemical, fluorescence, OMFP substrate, single point, counter-screen for PP5 inhibitor project, primary screen (AID 2235)
Conditions: purified PP1alpha, at 6.7 µM, active compounds read high
The campaign covered roughly 320,000 compounds. About 2,800 (0.88%) were called active. Shown is part of a subset that was picked to be rich in actives.
reported-metric: inhibition (%)
Respond numerically; units are % and should not be typed.

INSERT INTO results (compound, measured_result) VALUES
  ('O=C(NNC(=O)c1cc2c(s1)CCCC2)c1ccccc1', -3.37),
  ('O/N=C(\c1ccc2c(c1)OCCO2)C1CCCCC1', 0.46),
  ('Cc1ccc(CSCC2Nc3ccc(C(=O)N4CCN(c5ccc(F)cc5)CC4)cc3NC2=O)cc1 (stereo unspecified)', 17.7),
  ('CCC(c1nnnn1Cc1ccco1)N(CCc1ccccc1)Cc1cc2cccc(C)c2[nH]c1=O (stereo unspecified)', 7.62),
  ('c1ccc(-c2nccc(-c3ccc(-n4cnc5ccccc54)cc3)n2)nc1', 44.6);

Record Cc1ccccc1/C=C\c1nc(O)c([N+](=O)[O-])c(=O)[nH]1 , field inhibition: -3.61

---

Molecular target: Serine/threonine-protein phosphatase PP1-alpha catalytic subunit (Homo sapiens) (UniProt P62136)
Sequence (P62136 whole entry, looked up): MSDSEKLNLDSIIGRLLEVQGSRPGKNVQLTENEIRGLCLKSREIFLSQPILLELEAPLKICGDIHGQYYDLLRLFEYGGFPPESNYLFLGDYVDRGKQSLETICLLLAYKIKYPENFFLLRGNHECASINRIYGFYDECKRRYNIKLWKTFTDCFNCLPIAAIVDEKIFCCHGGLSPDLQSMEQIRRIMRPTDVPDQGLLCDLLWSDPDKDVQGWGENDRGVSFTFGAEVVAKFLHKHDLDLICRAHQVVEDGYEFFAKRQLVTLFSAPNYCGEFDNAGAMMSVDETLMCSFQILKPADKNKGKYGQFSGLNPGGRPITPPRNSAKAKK
Assay: inhibition of human PP1 catalytic subunit – biochemical, fluorescence, OMFP substrate, single point, counter-screen for PP5 inhibitor project, primary screen (AID 2235)
Settings: purified PP1alpha, at 6.7 µM
The whole screen tested about 320,000 compounds, of which about 2,800 (0.88%) were called active.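 The calls were made as follows: active = inhibition above the mean inhibition of all tested compounds plus 3 SD, computed separately for each screening campaign (cut at about 15% in these data); inactive = the rest.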 The full list was thinned out, with actives kept by preference.
Log the outcome using a class from label 1 (active), label 0 (inactive)

Use the examples below as a reference point.
INSERT INTO measurements (compound, class_name) VALUES
  ('CC(C)Cn1c(N)c(C(=O)COC(=O)C2CCCN2C(=O)c2cccs2)c(=O)n(C)c1=O (centres undefined)', 'label 0'),
  ('Cc1cccc(NC(=O)c2ccc(S(=O)(=O)N(C)CC3CCCO3)cc2)c1C (centres undefined)', 'label 0'),
  ('NC(=O)c1ccsc1NC(=O)c1ccco1', 'label 0');

Call for entry COc1ccc(C2C(C(C)=O)=C(O)C(=O)N2Cc2cccnc2)cc1 (centres undefined) :
label 0

---

inhibition values for the compounds below.
Target: Serine/threonine-protein phosphatase PP1-alpha catalytic subunit (Homo sapiens)
Assay: inhibition of human PP1 catalytic subunit – biochemical, fluorescence, OMFP substrate, single point, counter-screen for PP5 inhibitor project, primary screen (AID 2235)
Conditions: purified PP1alpha, at 6.7 µM, active compounds read high
About 2,800 (0.88%) of roughly 320,000 compounds were called active. The full list was thinned out, with actives kept by preference.
Respond numerically; units are % and should not be typed.

Solved cases below.
INSERT INTO assay_data (compound, output_unit, measured_result) VALUES
  ('Cc1cc(Nc2ccc(Br)cc2F)n2ncnc2n1', '%', -2.4),
  ('COc1ccc(C2=NS(=O)(=O)N(C)C(C(=O)NC(C)c3ccccc3)=C2)cc1 (stereo not given)', '%', -1.27),
  ('COC(=O)c1ccc(-c2c(-c3ccccc3)ncc3cc(OC)c(OC)cc23)cc1', '%', 1.2),
  ('Cc1cccc2cc(CN(C(=O)c3cccs3)c3ccccc3)c(=O)[nH]c12', '%', 1.24);

Now for a further compound.
Record C[C@H](NC(=O)[C@@H]1Cc2ccccc2CN1C(=O)OC(C)(C)C)C(=O)NC1CCCC1 , field inhibition: -1.9
